system: S. aureus ATCC 25923 biofilms; experiment: Anti-biofilm viability assay with redox dye, pre- and post-exposure, S. aureus ATCC 25923 biofilms; format: cell-based, Staphylococcus aureus; conditions: Staphylococcus aureus, ATCC25923; 400 μM; pre-exposure; S. aureus ATCC 25923; read-out: % Inhibition 400 μM PRE
Some molecules, each annotated with its measured inhibition at 400 µM.
A bare number is not enough; add the unit after it.

molecule: CC(C)c1ccc2c(c1)C(=O)C[C@H]1[C@](C)(C(=O)N[C@@H](CC3CCCCC3)C(=O)O)CCC[C@]21C [Compound 32]
inhibition at 400 µM: 102%
//
molecule: CC(C)c1ccc2c(c1)CC[C@H]1[C@](C)(C(=O)N[C@@H](Cc3ccccc3)C(=O)O)CCC[C@]21C [Compound 21]
inhibition at 400 µM: 100%

Ask | Using known records, supply inhibition at 400 µM for CC(C)c1ccc2c(c1)CC[C@H]1[C@](C)(C(=O)N[C@H](Cc3c[nH]c4ccccc34)C(=O)O)CCC[C@]21C [Compound 25]
Reply | 102%

Ask | Using known records, supply inhibition at 400 µM for CC(C)c1ccc2c(c1)CC[C@H]1[C@](C)(C(=O)N[C@H](Cc3ccc(O)cc3)C(=O)O)CCC[C@]21C [Compound 24]
Reply | 102%

Ask | Using known records, supply inhibition at 400 µM for CC(C)c1ccc2c(c1)CC[C@H]1[C@](C)(C(=O)N[C@@H](CC3CCCCC3)C(=O)O)CCC[C@]21C [Compound 22]
Reply | 100%

Ask | Using known records, supply inhibition at 400 µM for CC[C@H](NC(=O)[C@]1(C)CCC[C@]2(C)c3ccc(C(C)C)cc3CC[C@@H]12)C(=O)O [Compound 19]
Reply | 99.8%
